# Tested on: Klebsiella pneumoniae ATCC 8045
# Run description: In vitro antibacterial activity, MIC by agar dilution
# Format: cell-based
# Details: BHI agar, 35-37°C, 20-24 hours, unit assumed
Parameter measured: MIC values (µg/mL)
Report the figure in µg/mL without appending any unit label.

Note down MIC values recorded for CCc1cc(C(=O)O)c(=O)n2ccc(N3CCN(C)CC3)cc12.Cl
6.2

In one line, give reported MIC values of the entry CC(C)(C)OC(=O)NC1CCN(c2nc3c(-c4ccc(F)cc4F)cc(C(=O)O)c(=O)n3cc2F)C1 (stereo not shown) .
1.56

Identify MIC values associated with the compound O=C(O)c1cc(C2CC2)c2nc(N3CCNCC3)c(F)cn2c1=O
0.05

Output measured MIC values for this item: O=C(O)c1cn(C2CC2)c2cc(N3CCNCC3)c(F)cc2c1=O [Cntl, Ciprofloxacin, reference compound]
0.02
